molecular target: human PDE4D catalytic domain (UniProt no. Q08499) (Homo sapiens (Human), UniProt Q08499); test: PDE4 assay (TR-FRET, FAM-cAMP cleavage); assay type: biochemical; details: human PDE4D catalytic domain; molar concentration giving 50% inhibition of substrate cleavage; read-out: PDE4 IC50 range
Sequence (Q08499 380-740 limits assumed): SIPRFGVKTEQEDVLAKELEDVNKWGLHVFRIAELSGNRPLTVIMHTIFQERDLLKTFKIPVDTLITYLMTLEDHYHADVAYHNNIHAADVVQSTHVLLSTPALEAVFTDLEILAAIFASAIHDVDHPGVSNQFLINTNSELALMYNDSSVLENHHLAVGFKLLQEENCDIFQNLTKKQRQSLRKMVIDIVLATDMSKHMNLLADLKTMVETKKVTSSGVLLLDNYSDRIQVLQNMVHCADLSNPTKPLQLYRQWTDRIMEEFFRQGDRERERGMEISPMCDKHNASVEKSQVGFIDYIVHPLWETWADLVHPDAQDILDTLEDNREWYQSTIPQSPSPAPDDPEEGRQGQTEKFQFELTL
pIC50: −log10 of the molar value.
Give measured pIC50 for each item. Keep answers brief.

Record excerpt, results attached:
input: Using known records, supply pIC50 for "CCc1nn(C[C@@H](C)COC(=O)c2ccc(OC)cc2C(F)(F)F)c2c1C(=O)NCC1(CCOCC1)C2"
output: > 7.00

input: Using known records, supply pIC50 for "CCc1nn(CCCOC(=O)c2cccc(F)c2C(F)(F)F)c2c1C(=O)NCC1(CCOCC1)C2"
output: > 7.00

input: Using known records, supply pIC50 for "CCc1nn(C[C@@H](C)COC(=O)c2ccc(S(=O)(=O)CC)cc2)c2c1C(=O)NCC1(CCOCC1)C2"
output: > 7.00

Pending compound:
input: Using known records, supply pIC50 for "CCc1nn(CCCOC(=O)c2cc(F)cc(Cl)c2)c2c1C(=O)NCC1(CCOCC1)C2"
output: > 7.00

----------
target: human PDE4D catalytic domain (UniProt no. Q08499) (Homo sapiens (Human), UniProt Q08499); experiment: PDE4 assay (TR-FRET, FAM-cAMP cleavage); format: biochemical; settings: human PDE4D catalytic domain; molar concentration giving 50% inhibition of substrate cleavage; read-out: PDE4 IC50 range
pIC50: −log10 of the molar value.
Give measured pIC50 for each item. Keep answers brief.

Record excerpt, results attached:
input: Please report pIC50 with human PDE4D catalytic domain (UniProt no. Q08499) (Homo sapiens (Human), UniProt Q08499) for item "CCc1nn(CCCOC(=O)c2ccccc2O)c2c1C(=O)NCC1(CCOCC1)C2" .
output: > 7.00

input: Please report pIC50 with human PDE4D catalytic domain (UniProt no. Q08499) (Homo sapiens (Human), UniProt Q08499) for item "CCc1nn(C[C@@H](C)COC(=O)c2ccc(C(F)(F)F)c(Cl)c2)c2c1C(=O)NCC1(CCOCC1)C2" .
output: > 7.00

// each listed molecule needs a value for pIC50
1. CCc1nn(CCCOC(C)=O)c2c1C(=O)NCC1(CCOCC1)C2
2. CCc1nn(C[C@@H](C)COC(=O)c2cc(F)cc(C#N)c2)c2c1C(=O)NCC1(CCOCC1)C2
3. CCc1nn(CCCOC(=O)c2cc(Cl)ccc2OC)c2c1C(=O)NCC1(CCOCC1)C2
4. CCc1nn(CCCOC(=O)[C@H]2CC[C@H](O)CC2)c2c1C(=O)NCC1(CCOCC1)C2
5. CCc1nn(CCCOC(=O)CCOC)c2c1C(=O)NCC1(CCOCC1)C2
6. CCc1nn(CCCOC(=O)CCS(C)(=O)=O)c2c1C(=O)NCC1(CCOCC1)C2

output:
1: 6.30 to 7.00; 2: > 7.00; 3: > 7.00; 4: 6.30 to 7.00; 5: < 6.30; 6: < 6.30

----------
biological target: human PDE4D catalytic domain (UniProt no. Q08499) (Homo sapiens (Human), UniProt Q08499); test: PDE4 assay (TR-FRET, FAM-cAMP cleavage); type: biochemical; details: read-out: PDE4 IC50 range
measurement type: IC50

// each listed molecule needs a value for IC50
1. CCc1nn(CC(C)(C)COC(=O)c2ccc(S(=O)(=O)N(C)C)cc2)c2c1C(=O)NCC1(CCOCC1)C2 [Example 318]
2. CCc1nn(CCCCOC(=O)c2ccc(F)cc2)c2c1C(=O)NCC1(CCOCC1)C2 [Example 366]
3. CCc1nn(C[C@H](C)COC(=O)c2ccc(F)cc2)c2c1C(=O)NCC1(CCOCC1)C2 [Example 277]
4. CCc1nn(CC(C)(C)COC(=O)c2ccc(S(=O)(=O)N3CCCC3)cc2)c2c1C(=O)NCC1(CCOCC1)C2 [Example 321]
5. CCc1nn(CCCCOC(=O)c2ccc(C(=O)NC)cc2)c2c1C(=O)NCC1(CCOCC1)C2 [Example 379]

output:
1: < 100 nM; 2: < 100 nM; 3: < 100 nM; 4: < 100 nM; 5: 100 to 500 nM

// each listed molecule needs a value for IC50
1. CCc1nn(CCCCOC(=O)c2ccccc2)c2c1C(=O)NCC1(CCOCC1)C2 [Example 363]
2. CCc1nn(CCCCOC(=O)c2ccc(S(=O)(=O)N3CCOCC3)cc2)c2c1C(=O)NCC1(CCOCC1)C2 [Example 378]

output:
["< 100 nM", "100 to 500 nM"]

----------
biological target: human PDE4D catalytic domain (UniProt no. Q08499) (Homo sapiens (Human), UniProt Q08499); assay: PDE4 assay (TR-FRET, FAM-cAMP cleavage); type: biochemical; details: human PDE4D catalytic domain; molar concentration giving 50% inhibition of substrate cleavage; read-out: PDE4 IC50 range
Give measured IC50 for each item. Keep answers brief.

Record excerpt, results attached:
input: Using known records, supply IC50 for CCc1nn(C[C@@H](C)COC(=O)c2ccc(S(=O)(=O)N3CCCC3)cc2)c2c1C(=O)NCC1(CCOCC1)C2 [Example 245]
output: < 100 nM

input: Using known records, supply IC50 for CCc1nn(CCCOC(=O)c2cc(OC)cc(C(F)(F)F)c2)c2c1C(=O)NCC1(CCOCC1)C2 [Example 120]
output: < 100 nM

// each listed molecule needs a value for IC50
1. CCc1nn(CCCOC(=O)c2cccc(C)c2)c2c1C(=O)NCC1(CCOCC1)C2 [Example 15]
2. CCc1nn(CCCOC(=O)CCSC)c2c1C(=O)NCC1(CCOCC1)C2 [Example 13]
3. CCc1nn(CCCOC(=O)c2cccc(C(C)=O)c2)c2c1C(=O)NCC1(CCOCC1)C2 [Example 51]

output:
["< 100 nM", "100 to 500 nM", "< 100 nM"]

----------
molecular target: human PDE4D catalytic domain (UniProt no. Q08499) (Homo sapiens (Human), UniProt Q08499); experiment: PDE4 assay (TR-FRET, FAM-cAMP cleavage); type: biochemical; details: human PDE4D catalytic domain; molar concentration giving 50% inhibition of substrate cleavage; read-out: PDE4 IC50 range
measurement type: IC50

input: Using known records, supply IC50 for "CCc1nn(CCCOC(=O)c2ccc(C)c(C(F)(F)F)c2)c2c1C(=O)NCC1(CCOCC1)C2"
output: < 100 nM

input: Using known records, supply IC50 for "CCc1nn(C[C@@H](C)COC(=O)c2ccc(Cl)cc2OC)c2c1C(=O)NCC1(CCOCC1)C2"
output: < 100 nM

input: Using known records, supply IC50 for "CCc1nn(C[C@@H](C)COC(=O)c2ccc(C(F)(F)F)c(C(F)(F)F)c2)c2c1C(=O)NCC1(CCOCC1)C2"
output: < 100 nM

// each listed compound needs a value for IC50
1. CCc1nn(CCCOC(=O)c2ccc(S(=O)(=O)NC)cc2)c2c1C(=O)NCC1(CCOCC1)C2
2. CCc1nn(C[C@@H](C)COC(=O)c2c(F)cccc2F)c2c1C(=O)NCC1(CCOCC1)C2

output:
1: < 100 nM; 2: < 100 nM
